test: Half life in Sprague-Dawley rat liver microsomes at 100 uM incubated for 30 mins by HPLC analysis; assay type: ADME
Non-standard residues stand in square brackets, D forms with d. Residues, ends and D or L forms follow the SMILES beside them. *: point of attachment. Phe(4-guanidino) = N=C(N)Nc1ccc(C[C@H](N)C(=O)O)cc1; Hydrocinnamoyl = O=C(CCc1ccccc1)*; Phg = N[C@H](C(=O)O)c1ccccc1
quantity_kind: half-life at 100 µM (min)
Field format: number, assumed min, no unit text.

Record request: half-life at 100 µM value, item N=C(N)Nc1ccc(C[C@H](NC(=O)CCc2ccccc2)C(=O)N[C@@H](CCCCN)C(=O)N[C@H](C(N)=O)c2ccccc2)cc1 (Hydrocinnamoyl-[Phe(4-guanidino)]-Lys-[Phg]-NH2) 18

Using the record for C[C@]12CC[C@H]3[C@@H](CCC4=CC(=O)CC[C@@]43C)[C@@H]1CC[C@@H]2O [TESTOSTERONE] , report its half-life at 100 µM. 63

Return reported half-life at 100 µM; argument: N=C(N)c1ccc(C[C@H](NC(=O)CCc2ccccc2)C(=O)N[C@@H](CCCCN)C(=O)N[C@H](C(N)=O)c2ccccc2)cc1 22
